- target.or.test.system: T1, cynomolgus monkey B7-H1 expressed on cells (cynomolgus monkey, UniProt G7PSE7 19-290)
- T1 construct: whole, on cells; also called cyno B7-H1; cynomologus B7-H1
- T1 sequence (G7PSE7 entry or part of it): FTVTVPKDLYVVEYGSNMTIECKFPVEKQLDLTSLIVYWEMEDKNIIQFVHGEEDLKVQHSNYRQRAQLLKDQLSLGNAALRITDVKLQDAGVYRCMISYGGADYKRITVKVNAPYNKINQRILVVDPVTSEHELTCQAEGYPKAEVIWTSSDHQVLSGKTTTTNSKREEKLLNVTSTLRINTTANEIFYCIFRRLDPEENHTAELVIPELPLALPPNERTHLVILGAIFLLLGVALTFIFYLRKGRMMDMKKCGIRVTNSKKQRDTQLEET
- test.details: FMAT, hybridoma supernatant, 293T cells expressing cynomolgus monkey B7-H1
measured.attribute: FL1
// return just the number, without any unit appended

Please review the entries below; each comes with its answer.
3.15G8 (antibody, IgG4, V domains shown, also called mAb 3.15G8) VH: EVQLVESGGGLVQPGGSLRLSCAASGFTFSSYWMSWVRQAPGKGLEWVANIKQDGGEKYYVDSVKGRFTISRDNAKNSLFLQMNSLRAEDTAVYYCARVQLYSDYFDYWGQGTLVTVSS VL: DIQMTQSPSSVSASVGDRVTITCRASQGISSWLAWYQQKSGKAPKLLIYAASGLQSGVPSRFSGSGSGTDFTLTISSLQPEDLATYYCQQSHSLPPTFGQGTKVEIK	8650
2.20A8 (antibody, IgG2, V domains shown, also called mAb 2.20A8) VH: EVQLLESGGGLVQPGGSLRLSCAASGFTFSNYAMSWVRQAPGKGLEWVSAIRGSGGSTYYADSVKGRFTISRDNSKNTLYLQMNSLRAEDTAVYYCAKDLHYDSSGYLDYWGQGTLVTVSS VL: DIQMTQSPSSVSASVGDRVTITCRASQGIRSWLAWYQQKPGKAPKLLIYAISRLQSGVPSRFSGSGSGTDFTLTISSLQPEDFATYYCQQANSFPLTFGGGTKVEIK	7930

Next item in the queue.
Ask | Param item = 2.7A4 (antibody, IgG2, V domains shown, also called mAb 2.7A4) VH: EVQLVESGGGLVKPGGSLRLSCAASGFTFSTYSMNWVRQAPGKGLEWVSSISSSGDYIYYADSVKGRFTISRDNAKNSLFLQMNSLKAEDTAVYYCARDLVTSMVAFDYWGQGTLVTVSS VL: SYELTQPPSVSVSPGQAARITCSGDALPQKYVFWYQQKSGQAPVLVIYEDSKRPSGIPERFSGSSSGTMATLTISGAQVEDEADYYCYSTDRSGNHRVFGGGTRLTVL ; retrieve measured FL1.
Reply | 8700
